Test system: HT-29
PROCEDURE_DETAILS: NCI tumour cell line growth inhibition, 48 h
Calls of active or inactive are those of the source. Rule as the data show it: active = GI50 up to about 1.1 µM and inactive = higher.
Quick list: GI50 per entry.

Take a look at these entries with their results.
// query Entry COc1ccccc1/C=C/c1nc2ccccc2o1 : reported GI50 = ?
// result > 10 µM (inactive)

// query Could you do the same for OCc1ccc(C2CC(c3ccco3)=NN2c2ccccc2)o1 (configuration not stated) , please?
// result > 100 µM (inactive)

// query Thanks! And Cc1nc(C)c(N2CCN(Cc3ccccc3)CC2)c(O)n1 ?
// result > 100 µM (inactive)

// query Check O=C(NCCC1([N+](=O)[O-])CCN(C(=O)c2ccccc2)CC1)c1ccccc1 too.
// result 45.6 µM (inactive)

// query Same for CCOC(=O)C1(C)C2=CC=C(O2)C(C)(C)C2=CC=C(O2)C(C)(C)C2=CC=C(O2)C(C)(C)C2=CC=C1O2
// result > 100 µM (inactive)

Okay, now this compound:
// query What value of measured GI50 is listed for COc1ccc(/C=C/c2cnccn2)cc1OC ?
// result > 10 µM (inactive)

====

System: SW-620
PROCEDURE_DETAILS: NCI tumour cell line growth inhibition, 48 h
Active and inactive are the calls of the source. Rule as the data show it: active = GI50 up to about 1.1 µM and inactive = higher.
Items are presented alongside their recorded GI50.

// query Find the recorded GI50 belonging to CCOC(=O)C1(C)C2=CC=C(O2)C(C)(C)C2=CC=C(O2)C(C)(C)C2=CC=C(O2)C(C)(C)C2=CC=C1O2 and report it.
// result > 100 µM (inactive)

// query Proceed to Clc1ccc(/N=C/C=C/Nc2ccc(Cl)cn2)nc1
// result 4.9 µM (inactive)

// query Would you mind doing Nc1nc(-c2ccccc2)nc2c1[n+]([O-])c1ccccc1[n+]2[O-] as well?
// result > 100 µM (inactive)

// query Same for CCCCCCCCCCCCC(CCCCCCCCCCCC)OP(=O)(O)O
// result > 100 µM (inactive)

// query Then Cc1ccc(C)n2c1nc1ccc3ccccc3c12 ?
// result > 100 µM (inactive)

// next item, GI50 requested
// query Look up GI50 for this compound: Cc1ccc(S(=O)(=O)NC(=O)Nc2cc(Cl)c(S(N)(=O)=O)cc2S(N)(=O)=O)cc1
// result > 100 µM (inactive)

====

Consider the following compounds and their measured GI50 readings.
Test system: EKVX
PROCEDURE_DETAILS: NCI tumour cell line growth inhibition, 48 h
The source made the active and inactive calls. Rule as the data show it: active = GI50 up to about 1.1 µM and inactive = higher.

// query Which value of GI50 has been reported for CC(C)(C)[Si](C)(C)OC1CCOC1(O)c1ccccn1 (stereo unspecified) in the records?
// result > 100 µM (inactive)

// query // same read-out, input: Cc1ccc(C(C)C)c(OCC(=O)N/N=C/c2c[nH]c3ccc(Br)cc23)c1
// result 2.86 µM (inactive)

// query What would you report for CCC1C(c2ccccc2O)c2cc3c(cc2OC1N1CCOCC1)OCO3 (stereo unspecified) ?
// result 12.8 µM (inactive)

====

Test system: OVCAR-5
PROCEDURE_DETAILS: NCI tumour cell line growth inhibition, 48 h
Calls of active or inactive are those of the source. Rule as the data show it: active = GI50 up to about 1.1 µM and inactive = higher.
Measured GI50 accompanies every entry in the list below.

// query # query: GI50 of entry CCOC(=O)C1=C(Nc2ccc(Br)cc2)OC/C1=N\NC(=O)c1ccccc1O
// result 46.1 µM (inactive)

New cases:
// query For C1CCCCC2(CCCCCCCCC3(CCC1)SCCS3)SCCS2 , what is its reported GI50?
// result > 100 µM (inactive)

// query Param item: Nc1c2ccccc2nc2c1ccc1ncccc12
// result 21.5 µM (inactive)

// query Entry to check: COc1cc(C(C)c2cc3c(cc2OCCCCCOc2cc4c(cc2C(C)c2cc(OC)c(OC)c(OC)c2)OCO4)OCO3)cc(OC)c1OC (stereo not drawn)
// result > 100 µM (inactive)

// query Please do the same for COc1ccc2c(c1)CC1C3(CCCCC23)CC[N+]1(C)C (stereo not drawn) as well.
// result > 100 µM (inactive)

// query Try the molecule O=c1cnn2c(n1)sc1ccc3ccccc3c12
// result > 100 µM (inactive)

// query Follow-up item: O=C(NCC(=O)N1CCCC1C(=O)OC(=O)C1CCCN1C(=O)CNC(=O)OCc1ccccc1)OCc1ccccc1 (stereo not drawn)
// result 29.1 µM (inactive)

// query Consider next the molecule O=C(O)C(C(=O)O)P(=S)(S)c1ccccc1 (stereo not drawn) in the same way.
// result > 100 µM (inactive)

// query Now consider COC(=O)/C(C)=C(/CCC1(C)OCCO1)O[Si](C)(C)C .
// result > 100 µM (inactive)

// query Another molecule to check: CC(C)(C)[Si](C)(C)OC1CCOC1(O)c1ccccn1 (stereo not drawn)
// result > 100 µM (inactive)

// query Please do the same for CC(C)=CC(=O)c1[nH]c2ccccc2c1CC(=O)NCCc1cncn1C as well.
// result > 100 µM (inactive)
